Listed here are variants together with their documented self-cleavage.
B1: CPEB3 Ribozyme (parent)
chain: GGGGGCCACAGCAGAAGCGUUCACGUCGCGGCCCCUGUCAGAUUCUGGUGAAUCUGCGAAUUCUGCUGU

Variants of: B1
Assay: self-cleavage, relative activity (ratio to wild type); higher = more cleavage; co-transcriptional

| query sequence | self-cleavage |
| --- | --- |
| GGGGGCCACAGCAGAAGCGUUCACGUCGCGGCCCCUCUCAGAUUCUGGAGAAUCUGCGAAUUCUGCUGU [G37C U49A] | 0.307 |
| GGGGGCCACAGCAGAAGCGUUCACGUCGCGGCCGCUGUCAGAUUCUGGUGAAUCUGCCAAUUCUGCUGU [C34G G58C] | 0.654 |
| GGGGGCCACAGCAGAAGCGUUCACGUCGCGGCCCCUGUCAAAUCCUGGUGAAUCUGCGAAUUCUGCUGU [G41A U44C] | 0.413 |
| GGGGGCCAUAGCAGAAGCGUUCACGUCGCGGCCCCUGUCAGAUUCUGGUGAAUCUGCGCAUUCUGCUGU [C9U A59C] | 0.877 |
| UGGGGCCACAGCAGAAGCGUUCACGUCGCGGCCCCUGUCAGAUUCUGGUGAAUCUGCGAGUUCUGCUGU [G1U A60G] | 0.128 |
| GGGGGCCACAGCAGAAUCGUUCACGUCGCGGCCCCUGUCAGAUUCUGGUGAAUCUGCGAAUUCUGCGGU [G17U U67G] | 0.627 |
| GGGGGCCACAGCAGAAGCGUUCACUUCGCGGCCCCUGUCAGAUUCUGGUGAAUCCGCGAAUUCUGCUGU [G25U U55C] | 0.229 |
| GGGGGCCACAGCAGAAGCCUUCACGUCGCGGCCCCUGUCAGAUUCUGGUGAACCUGCGAAUUCUGCUGU [G19C U53C] | 0.0977 |
| GGGGGCCACAGCAGAAGCGUUCACGUCGCGGCCCCUGUCAGAUUCUGGUGAAUCUGCGACCUCUGCUGU [A60C U61C] | 0.355 |
| GGGGGCCACAGCAGAAGCGUUCACGUCGCGGCCCCUGUCAGAUUCUGGUGAAUCUGUGAAUUCUGCUCU [C57U G68C] | 0.365 |
| GGGGGCCACAGCAGAAGCGUUCACGUUGCGGCCCCUGUCAGAUUAUGGUGAAUCUGCGAAUUCUGCUGU [C27U C45A] | 0.216 |
| GGGGGCCACAGGAGAAGCGUUCACGUCGCGGCCCCUGUCAUAUUCUGGUGAAUCUGCGAAUUCUGCUGU [C12G G41U] | 0.377 |
| GGGGGCCACAGCAGAAGCGUUCACGUCGCGGCCCCUGUCAGAUGCUGGUGAAUCUACGAAUUCUGCUGU [U44G G56A] | 0.822 |
| GGGGGACACAGCAGAAGCGUUCACGUCGCGGCCCCUGUCAGACUCUGGUGAAUCUGCGAAUUCUGCUGU [C6A U43C] | 0.412 |
| GGGGGCCACAGCAGAUGCGUUCAGGUCGCGGCCCCUGUCAGAUUCUGGUGAAUCUGCGAAUUCUGCUGU [A16U C24G] | 0.141 |
| GGGGGCCACAGCAGAAGCGUUCACGUCGCGGCCCCUGUCCGAUUCUCGUGAAUCUGCGAAUUCUGCUGU [A40C G47C] | 0.794 |
| GGGGGCCACAGCAGAGGCGUUCACGUCGCGGCCCCUGUCAGAUUCUGGUGAAUCUGCGAAUUCUUCUGU [A16G G65U] | 0.571 |
| GGGGGCCACAGCAGAAGCGUUCACGUCGCGGCCCAUGUCAGAUGCUGGUGAAUCUGCGAAUUCUGCUGU [C35A U44G] | 0.282 |
| GGGGGCCACAGCAGAAGCGUUCACGUCGCGGCUCCUGUCAGAUUCUGGUUAAUCUGCGAAUUCUGCUGU [C33U G50U] | 1 |
| GGGGGCCACAGCAGAAGCGUUCACGGCGCGGCCCCUGUCAUAUUCUGGUGAAUCUGCGAAUUCUGCUGU [U26G G41U] | 0.756 |
| GGGGGCCACAGCGGAAGCGUUCACGUCGCGCCCCCUGUCAGAUUCUGGUGAAUCUGCGAAUUCUGCUGU [A13G G31C] | 0.241 |
| GGGGGCCACAGCAGAAGCGUUCACGUCGCGGCCCCUGUCAGAUUCCGGUGAAUCUGCGAACUCUGCUGU [U46C U61C] | 0.788 |
